For each entry below, report its viability at 2 h, 100 µM value.
assayName: Cytotoxicity against chinese hamster CHO-DG44 cells assessed as cell viability at 100 uM and measured after 2 hrs by WST-1 method
Format: toxicity, cell-based, Cricetulus griseus
conditionSummary: read-out: Activity

Solved entries (count: 3):
N=C(N)Nc1ccc(OC2CCCC(Oc3ccc(NC(=N)N)cc3NC(=N)N)C2)c(NC(=N)N)c1 (stereo not drawn): > 90%
N=C(N)Nc1ccc(O[C@H]2C[C@@H](Oc3ccc(NC(=N)N)cc3NC(=N)N)[C@H](NC(=N)N)C[C@@H]2NC(=N)N)c(NC(=N)N)c1: > 90%
N=C(N)Nc1ccc(OC2CCCC(Oc3ccc(NC(=N)N)cc3)C2)cc1 (stereo not drawn): 70%

For the 5 compounds below, give their viability at 2 h, 100 µM values.
1. N=C(N)Nc1ccc(Oc2cccc(Oc3ccc(NC(=N)N)cc3)c2)cc1
2. N=C(N)Nc1ccc(O[C@H]2C[C@@H](Oc3ccc(NC(=N)N)cn3)[C@H](NC(=N)N)C[C@@H]2NC(=N)N)nc1
3. N=C(N)Nc1ccc(OCCCOc2ccc(NC(=N)N)cc2)cc1
4. N=C(N)Nc1ccc(O[C@H]2C[C@@H](Oc3ccc(NC(=N)N)cc3)[C@H](NC(=N)N)C[C@@H]2NC(=N)N)cc1
5. N=C(N)Nc1ccc(O[C@H]2C[C@@H](Oc3ccc(NC(=N)N)c4ccccc34)[C@H](NC(=N)N)C[C@@H]2NC(=N)N)cc1

[reply]
1: > 20%; 2: > 90%; 3: 60%; 4: > 90%; 5: > 50%

The following compounds each have a reported value; give each one's viability at 2 h, 100 µM.
1. N=C(N)Nc1ccc(OCCCOc2ccc(NC(=N)N)cc2NC(=N)N)c(NC(=N)N)c1
2. N=C(N)Nc1ccc(O[C@H]2C[C@@H](Oc3ccc(NC(=N)N)c4ccccc34)[C@H](NC(=N)N)C[C@@H]2NC(=N)N)c(NC(=N)N)c1
3. N=C(N)Nc1ccc(O[C@H]2C[C@@H](Oc3ccc(NC(=N)N)c4ccccc34)[C@H](NC(=N)N)C[C@@H]2NC(=N)N)c2ccccc12
4. N=C(N)Nc1ccc(Oc2cccc(Oc3ccc(NC(=N)N)cc3NC(=N)N)c2)c(NC(=N)N)c1
5. N=C(N)Nc1ccc(O[C@H]2C[C@@H](Oc3ccc(NC(=N)N)cc3NC(=N)N)[C@H](NC(=N)N)C[C@@H]2NC(=N)N)cc1

[reply]
1. > 90%
2. > 80%
3. > 90%
4. > 60%
5. > 90%
